System: KRAS PDC multicell spheroid viability
Assay: Anticancer human tumor 521955-158-R6-J3-PDC patient-derived pancreatic carcinoma cell line growth inhibition [KRAS2]
Conditions: curve of first compound; second compound 10 µM
Source text: Multicellular complex tumor spheroid response to RAS pathway inhibitors in combination with a targeted agents in patient-derived cell lines with oncogenic KRAS variants from multiple cancer types A high-throughput screen of multi-cell type tumor spheroids was designed to identify active combinations of targeted small molecules and KRAS pathway inhibitors. […] Compounds. […] If the clinical Cmax for an agent had not been determined, the highest concentration tested was 10 microM. […]
parameter: IC50

Solved entries:
Cn1ncnc1[C@H]1c2n[nH]c(=O)c3cc(F)cc(c23)N[C@@H]1c1ccc(F)cc1 + C=CC(=O)N1CCN(c2nc(=O)n(-c3c(C)ccnc3C(C)C)c3nc(-c4c(O)cccc4F)c(F)cc23)C(C)C1	> 100 nM
CC1(C)CCC(CN2CCN(c3ccc(C(=O)NS(=O)(=O)c4ccc(NCC5CCOCC5)c([N+](=O)[O-])c4)c(Oc4cnc5[nH]ccc5c4)c3)CC2)=C(c2ccc(Cl)cc2)C1 + CC1OCC2(CCN(c3cnc(Sc4ccnc(N)c4Cl)c(N)n3)CC2)C1N	2840 nM
CCNC(=O)CC1N=C(c2ccc(Cl)cc2)c2cc(OC)ccc2-n2c(C)nnc21 (stereo not given) + COc1cc2nc(C)nc(NC(C)c3cc(N)cc(C(F)(F)F)c3)c2cc1OC1CCOC1	38.2 nM

List IC50 for every entry below, keeping the order given.
1. CC1COCCN1c1cc(-c2ccnn2C)c2ccnc(-c3ccn[nH]3)c2n1 (stereo not given) + COc1cc2nc(C)nc(NC(C)c3cc(N)cc(C(F)(F)F)c3)c2cc1OC1CCOC1
2. CC1(C)CCC(CN2CCN(c3ccc(C(=O)NS(=O)(=O)c4ccc(NCC5CCOCC5)c([N+](=O)[O-])c4)c(Oc4cnc5[nH]ccc5c4)c3)CC2)=C(c2ccc(Cl)cc2)C1 + CNCc1ccccc1-c1csc(C(C)Nc2nc(C)nc3cc(OC)c(OC)cc23)c1
3. CC1COCCN1c1cc(-c2ccnn2C)c2ccnc(-c3ccn[nH]3)c2n1 (stereo not given) + C=CC(=O)N1CCN(c2nc(=O)n(-c3c(C)ccnc3C(C)C)c3nc(-c4c(O)cccc4F)c(F)cc23)C(C)C1

## Result
1. < 10 nM
2. < 31.6 nM
3. > 3160 nM

List IC50 for every entry below, keeping the order given.
1. O=C(c1cc(Cc2n[nH]c(=O)c3ccccc23)ccc1F)N1CCN(C(=O)C2CC2)CC1 + CC1OCC2(CCN(c3cnc(Sc4ccnc(N)c4Cl)c(N)n3)CC2)C1N
2. Cn1nccc1Nc1nccc(-c2cc3c(s2)C(C)(C)N(CCN2CCOCC2)C3=O)n1 + COc1cc2nc(C)nc(NC(C)c3cc(N)cc(C(F)(F)F)c3)c2cc1OC1CCOC1
3. O=C(c1cc(Cc2n[nH]c(=O)c3ccccc23)ccc1F)N1CCN(C(=O)C2CC2)CC1 + CNCc1ccccc1-c1csc(C(C)Nc2nc(C)nc3cc(OC)c(OC)cc23)c1
4. CC(=O)Nc1cccc(-n2c(=O)n(C3CC3)c(=O)c3c(Nc4ccc(I)cc4F)n(C)c(=O)c(C)c32)c1 + C=CC(=O)N1CCN(c2nc(=O)n(-c3c(C)ccnc3C(C)C)c3nc(-c4c(O)cccc4F)c(F)cc23)C(C)C1

## Result
["> 10000 nM", "< 31.6 nM", "< 31.6 nM", "8.58 nM"]

###

tested on: KRAS PDC multicell spheroid viability; experiment: Anticancer human tumor 521955-158-R6-J3-PDC cell line growth inhibition [KRAS2]; conditions: second compound 0.316 µM; first compound 0.1 µM; stronger effect = lower value;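 further: drug exposure lasted seven days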;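 on viability, T/C: 100% = DMSO vehicle wells and lower means fewer viable cells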
Field: viability, T/C. Provide a value for each of the compounds that follow.
Answers are plain numbers, in %.

Solved entries:
COc1cc2nccc(Oc3ccc(NC(=O)C4(C(=O)Nc5ccc(F)cc5)CC4)cc3)c2cc1OC + C=CC(=O)N1CCN(c2nc(=O)n(-c3c(C)ccnc3C(C)C)c3nc(-c4c(O)cccc4F)c(F)cc23)C(C)C1	91.3
CN(C)C/C=C/C(=O)Nc1cc2c(Nc3ccc(F)c(Cl)c3)ncnc2cc1O[C@H]1CCOC1 + COc1cc2nc(C)nc(NC(C)c3cc(N)cc(C(F)(F)F)c3)c2cc1OC1CCOC1	53.2

Now for another entry.
## Task Data request, read-out viability, T/C, for COC(=O)c1ccc2c(C(=Nc3ccc(N(C)C(=O)CN4CCN(C)CC4)cc3)c3ccccc3)c(O)[nH]c2c1 + COc1cc2nc(C)nc(NC(C)c3cc(N)cc(C(F)(F)F)c3)c2cc1OC1CCOC1
## Result 90.3

###

system: KRAS PDC multicell spheroid viability; experiment: Anticancer human tumor 521955-158-R6-J3-PDC cell line growth inhibition [KRAS2]; conditions: second compound 3.16 µM; first compound 10 µM; stronger effect = lower value;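 further: drug exposure lasted seven days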;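 on viability, T/C: 100% = DMSO vehicle wells and lower means fewer viable cells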
Rule: viability, T/C below 30% gives YES, anything at or above gives NO.

Reference set (5 entries):
O=C(c1cc(Cc2n[nH]c(=O)c3ccccc23)ccc1F)N1CCN(C(=O)C2CC2)CC1 + C=CC(=O)N1CCN(c2nc(OCC3CCCN3C)nc3c2CCN(c2cccc4cccc(C)c24)C3)CC1CC#N	YES
CCNC(=O)CC1N=C(c2ccc(Cl)cc2)c2cc(OC)ccc2-n2c(C)nnc21 (stereo not given) + C=CC(=O)N1CCN(c2nc(OCC3CCCN3C)nc3c2CCN(c2cccc4cccc(C)c24)C3)CC1CC#N	NO
CC(C)NCC(C(=O)N1CCN(c2ncnc3c2C(C)CC3O)CC1)c1ccc(Cl)cc1 (stereo not given) + C=CC(=O)N1CCN(c2nc(OCC3CCCN3C)nc3c2CCN(c2cccc4cccc(C)c24)C3)CC1CC#N	YES
CC1(C)CCC(CN2CCN(c3ccc(C(=O)NS(=O)(=O)c4ccc(NCC5CCOCC5)c([N+](=O)[O-])c4)c(Oc4cnc5[nH]ccc5c4)c3)CC2)=C(c2ccc(Cl)cc2)C1 + C=CC(=O)N1CCN(c2nc(OCC3CCCN3C)nc3c2CCN(c2cccc4cccc(C)c24)C3)CC1CC#N	YES
O=C(c1cc(Cc2n[nH]c(=O)c3ccccc23)ccc1F)N1CCN(C(=O)C2CC2)CC1 + COc1cc2nc(C)nc(NC(C)c3cc(N)cc(C(F)(F)F)c3)c2cc1OC1CCOC1	NO

## Task Does this compound meet the criterion viability, T/C < 30%? O=C(c1cc(Cc2n[nH]c(=O)c3ccccc23)ccc1F)N1CCN(C(=O)C2CC2)CC1 + C=CC(=O)N1CCN(c2nc(=O)n(-c3c(C)ccnc3C(C)C)c3nc(-c4c(O)cccc4F)c(F)cc23)C(C)C1
## Result NO

## Task Does this compound meet the criterion viability, T/C < 30%? CC1OCC2(CCN(c3cnc(Sc4ccnc(N)c4Cl)c(N)n3)CC2)C1N (stereo not given) + COc1cc2nc(C)nc(NC(C)c3cc(N)cc(C(F)(F)F)c3)c2cc1OC1CCOC1
## Result NO

## Task Does this compound meet the criterion viability, T/C < 30%? COc1cc2nccc(Oc3ccc(NC(=O)C4(C(=O)Nc5ccc(F)cc5)CC4)cc3)c2cc1OC + C=CC(=O)N1CCN(c2nc(OCC3CCCN3C)nc3c2CCN(c2cccc4cccc(C)c24)C3)CC1CC#N
## Result YES

## Task Does this compound meet the criterion viability, T/C < 30%? Cn1nccc1Nc1nccc(-c2cc3c(s2)C(C)(C)N(CCN2CCOCC2)C3=O)n1 + CC1OCC2(CCN(c3cnc(Sc4ccnc(N)c4Cl)c(N)n3)CC2)C1N
## Result NO

## Task Does this compound meet the criterion viability, T/C < 30%? CC(C)NCC(C(=O)N1CCN(c2ncnc3c2C(C)CC3O)CC1)c1ccc(Cl)cc1 (stereo not given) + C=CC(=O)N1CCN(c2nc(=O)n(-c3c(C)ccnc3C(C)C)c3nc(-c4c(O)cccc4F)c(F)cc23)C(C)C1
## Result NO

## Task Does this compound meet the criterion viability, T/C < 30%? CC1OCC2(CCN(c3cnc(Sc4ccnc(N)c4Cl)c(N)n3)CC2)C1N (stereo not given) + C=CC(=O)N1CCN(c2nc(=O)n(-c3c(C)ccnc3C(C)C)c3nc(-c4c(O)cccc4F)c(F)cc23)C(C)C1
## Result NO

## Task Does this compound meet the criterion viability, T/C < 30%? COC(=O)c1ccc2c(C(=Nc3ccc(N(C)C(=O)CN4CCN(C)CC4)cc3)c3ccccc3)c(O)[nH]c2c1 + C=CC(=O)N1CCN(c2nc(=O)n(-c3c(C)ccnc3C(C)C)c3nc(-c4c(O)cccc4F)c(F)cc23)C(C)C1
## Result YES

## Task Does this compound meet the criterion viability, T/C < 30%? CC1OCC2(CCN(c3cnc(Sc4ccnc(N)c4Cl)c(N)n3)CC2)C1N (stereo not given) + CNCc1ccccc1-c1csc(C(C)Nc2nc(C)nc3cc(OC)c(OC)cc23)c1
## Result YES

###

test system: KRAS PDC multicell spheroid viability; assay: Anticancer human tumor 521955-158-R6-J3-PDC cell line growth inhibition [KRAS2]; details: second compound 0.0316 µM; first compound 0.1 µM; stronger effect = lower value;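 further: drug exposure lasted seven days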;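 on viability, T/C: 100% = DMSO vehicle wells and lower means fewer viable cells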
parameter: viability, T/C (%)
Give bare numbers, in %.

Solved entries:
CC(C)NCC(C(=O)N1CCN(c2ncnc3c2C(C)CC3O)CC1)c1ccc(Cl)cc1 (centres undefined) + C=CC(=O)N1CCN(c2nc(OCC3CCCN3C)nc3c2CCN(c2cccc4cccc(C)c24)C3)CC1CC#N	86.4
CC(C)n1nc(-c2ccc3oc(N)nc3c2)c2c(N)ncnc21 + C=CC(=O)N1CCN(c2nc(OCC3CCCN3C)nc3c2CCN(c2cccc4cccc(C)c24)C3)CC1CC#N	44.8
CCN1CCN(Cc2ccc(Nc3ncc(F)c(-c4cc(F)c5nc(C)n(C(C)C)c5c4)n3)nc2)CC1 + C=CC(=O)N1CCN(c2nc(OCC3CCCN3C)nc3c2CCN(c2cccc4cccc(C)c24)C3)CC1CC#N	76.1

Now for another entry.
## Task Data request, read-out viability, T/C, for CC1COCCN1c1cc(-c2ccnn2C)c2ccnc(-c3ccn[nH]3)c2n1 (centres undefined) + C=CC(=O)N1CCN(c2nc(OCC3CCCN3C)nc3c2CCN(c2cccc4cccc(C)c24)C3)CC1CC#N
## Result 89.7
